meta.source: patent US20260226073A1

SYSTEM: human recombinant CBL-b (human Biotin CBL-b recombinant protein a.a. 39-426) (Homo sapiens)
Construct: human Biotin CBL-b recombinant protein a.a; 39-426; Biotin (biotinylated)
Sequence (Q13191 39-426): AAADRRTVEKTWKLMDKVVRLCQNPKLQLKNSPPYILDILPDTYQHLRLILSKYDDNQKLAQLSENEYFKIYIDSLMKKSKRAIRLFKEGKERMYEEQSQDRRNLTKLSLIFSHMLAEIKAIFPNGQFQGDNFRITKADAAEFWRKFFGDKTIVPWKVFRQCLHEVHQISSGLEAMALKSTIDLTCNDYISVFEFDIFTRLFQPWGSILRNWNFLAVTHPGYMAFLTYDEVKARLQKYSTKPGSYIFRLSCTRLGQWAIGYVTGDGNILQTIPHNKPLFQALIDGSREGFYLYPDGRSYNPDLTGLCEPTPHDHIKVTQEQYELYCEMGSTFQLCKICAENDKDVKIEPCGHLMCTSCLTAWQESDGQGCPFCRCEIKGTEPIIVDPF
ASSAY: Biochemical assay for CBL-b inhibition (ligand displacement TR-FRET)
MEASUREMENT CONTEXT: 50 nM CBL-b, 0.3 μM Bodipy FL-Probe, read-out: IC50 (CBL-b inhibition, group)
Listing: IC50 of selected compounds

{"columns": ["COMPOUND", "IC50"],
 "data": [
  ["Cn1cnnc1CC1(c2ccc3c(c2)C(=O)N(c2cc(CNC4CC(F)(F)C4)cc(C(F)(F)F)n2)C3)COC1 [Compound 74]", "80 to 300 nM"],
  ["Cn1cnnc1CC1(c2ccc3c(c2)C(=O)N(c2cc(CNCCC(F)(F)F)cc(C(F)(F)F)n2)C3)COC1 [Compound 25]", "< 80 nM"],
  ["Cc1cc(CNC(C)(C)C)cc(N2Cc3ccc(-c4ccc(F)cc4-c4nncn4C)cc3C2=O)n1 [Compound 299]", "300 to 5000 nM"],
  ["CC1CCC(C)N(Cc2cc(N3Cc4ccc(C5(Cc6nncn6C)COC5)cc4C3=O)nc(C(F)(F)F)c2)C1 (single isomer, unassigned) [Compound 139]", "300 to 5000 nM"],
  ["C[C@H]1CCCN(Cc2cc(N3Cc4ccc(C5(Cc6nncn6C)COC5)cc4C3=O)cc3occc23)C1 [Compound 94]", "< 80 nM"],
  ["Cc1cc(CO)cc(N2Cc3ccc(-c4ccc(F)cc4-c4nncn4C)cc3C2=O)n1 [Compound 136]", "300 to 5000 nM"],
  ["CC1CCNC(c2cc(Cl)nc(N3Cc4ccc(C5(Cc6nncn6C)COC5)cc4C3=O)c2)C1 (stereo not shown) [Compound 249]", "300 to 5000 nM"],
  ["C[C@H](Cc1nncn1C)c1ccc2c(c1)C(=O)N(c1cc(CNCC3CCC3)cc(Cl)n1)C2 (single isomer, unassigned) [Compound 170]", "< 80 nM"],
  ["Cc1nc(CNCC2CC2)cc(N2Cc3ccc(C4(Cc5nncn5C)COC4)cc3C2=O)n1 [Compound 186]", "80 to 300 nM"],
  ["Cc1cc([C@H](C)NC2CCCC2)cc(N2Cc3ccc(-c4ccc(Cl)cc4-c4nncn4C)cc3C2=O)n1 (single isomer, unassigned) [Compound 125]", "< 80 nM"],
  ["Cn1cnnc1CC1(c2ccc3c(c2)C(=O)N(c2cc(CNCC4CC4)cc(Cl)n2)C3)CC2(CCC2)C1 [Compound 255]", "< 80 nM"],
  ["Cn1cnnc1CC1(c2ccc3c(c2)C(=O)N(c2cc(CNc4ccccn4)cc(Cl)n2)C3)COC1 [Compound 238]", "80 to 300 nM"],
  ["Cc1nc(N2Cc3ccc(C4(Cc5nncn5C)COC4)cc3C2=O)cc(CNCC2CC2)c1F [Compound 198]", "< 80 nM"],
  ["Cc1cc(CNCC2CCCC2)cc(N2Cc3ccc(-c4ccc(F)cc4-c4nncn4C)cc3C2=O)n1 [Compound 329]", "< 80 nM"],
  ["COCCNCc1cc(C)nc(N2Cc3ccc(-c4ccc(F)cc4-c4nncn4C)cc3C2=O)c1 [Compound 302]", "< 80 nM"],
  ["C[C@H]1CCCN(Cc2cc(N3Cc4ccc(C5(Cc6nncn6C)COC5)cc4C3=O)nc(C(F)(F)F)c2)[C@H]1C [Compound 138]", "300 to 5000 nM"],
  ["Cc1cc(CNCC2CC2)cc(N2Cc3ccc(-c4ccc(Cl)cc4-c4nncn4C)cc3C2=O)c1 [Compound 280]", "< 80 nM"],
  ["C[C@H]1CCCN(Cc2cc(Cl)nc(N3Cc4ccc(C5(Cc6nncn6C)CCC5)cc4C3=O)c2)C1 [Compound 89]", "< 80 nM"],
  ["C[C@H]1CCCN(Cc2cc(Cl)nc(N3Cc4ccc(C(Cc5nncn5C)C5CCC5)cc4C3=O)c2)C1 (stereo partly shown) [Compound 173]", "300 to 5000 nM"],
  ["Cn1cnnc1CC1(c2ccc3c(c2)C(=O)N(c2cc(CNCC4(C#N)CCC4)cc(Cl)n2)C3)COC1 [Compound 243]", "80 to 300 nM"],
  ["CC1CCC(C)N(Cc2cc(N3Cc4ccc(C5(Cc6nncn6C)COC5)cc4C3=O)nc(C(F)(F)F)c2)C1 (single isomer, unassigned) [Compound 142]", "300 to 5000 nM"],
  ["Cn1cnnc1CC1(c2ccc3c(c2)C(=O)N(c2cc(CN4CCC(F)(F)CC4)cc(C(F)(F)F)n2)C3)COC1 [Compound 48]", "80 to 300 nM"],
  ["Cn1cnnc1CC1(c2ccc3c(c2)C(=O)N(c2cc(CNC45CC(C4)C5)cc(Cl)n2)C3)COC1 [Compound 235]", "80 to 300 nM"],
  ["Cc1cc(CNCC2CCC2)cc(N2Cc3ccc(-c4ccc(F)cc4-c4nncn4C)cc3C2=O)n1 [Compound 134]", "< 80 nM"],
  ["Cc1cc(CNCCC(C)C)cc(N2Cc3ccc(-c4ccc(F)cc4-c4nncn4C)cc3C2=O)n1 [Compound 300]", "< 80 nM"],
  ["Cc1cc(CNCC2CC2)cc(N2Cc3ncc(-c4ccc(Cl)cc4-c4nncn4C)cc3C2=O)n1 [Compound 264]", "80 to 300 nM"],
  ["C[C@@H]1CN(Cc2cc(Cl)nc(N3Cc4ccc(C5(Cc6nncn6C)COC5)cc4C3=O)c2)C[C@@H](C)O1 [Compound 177]", "300 to 5000 nM"],
  ["C[C@@H](NCc1ccccn1)c1cc(Cl)nc(N2Cc3ccc(C4(Cc5nncn5C)COC4)cc3C2=O)c1 (single isomer, unassigned) [Compound 241]", "300 to 5000 nM"]
]}
